Measured values drawn from ChEMBL document CHEMBL1201862 for this set.

- Tested on: MDA-MB-231
- PROCEDURE_TEXT: NCI tumour cell line growth inhibition, 48 h
Active and inactive are the calls of the source. Rule as the data show it: active = GI50 up to about 1.1 µM and inactive = higher.
Classes used: class 1 = active, class 0 = inactive

CCC(/C=C/C1OC(=O)C=CC1C)=C\C(C)C/C=C/C(C)=C/C(C)C(=O)C(C)C(O)C(C)C/C(C)=C/C(=O)O (stereo not given)    class 1
c1ccc(NN/N=N/c2ccc(-c3nc4ccccc4[nH]3)cc2)cc1    class 0
CN(C)/C=N/Cc1ccc2c(c1)OCO2    class 0
O=c1oc2ccc3ccccc3c2cc1-c1cn2ccsc2n1    class 0
CC(C)(C)COC(=O)C(C)(C)NC(=O)C(CC(=O)OCc1ccccc1)NC(=O)OCc1ccccc1 (stereo not given)    class 0

* * *

- Test system: NCI-H460
- PROCEDURE_TEXT: NCI tumour cell line growth inhibition, 48 h
Active and inactive are the calls of the source. No stated cut-off is given here; in the data, active = GI50 up to about 1.1 µM and inactive = higher.
Reported GI50 values for the following compounds.
OBSERVATION_TYPE: GI50

CCCCCCCCC[C@@H]1C[C@@H]2CCC3C(C(=O)OCCCCNC(=O)OCc4ccccc4)=C(C)N=C(N1)N32 (stereo partly specified)    3.22 µM (inactive)
CCCCCCCCCCCCCCCCCCNc1ccn(C2OC(CO)C(OP(=O)(O)OCC3CCC(n4ccc(N)nc4=O)O3)C2O)c(=O)n1 (stereo unspecified)    55.8 µM (inactive)
ClCC1(CCl)COC1    > 100 µM (inactive)
Oc1cc(F)cc2cccnc12    1.24 µM (inactive)
CC(Nc1cc(=O)n(C)c(=O)[nH]1)c1ccccc1 (stereo unspecified)    > 100 µM (inactive)
CC1CCCC(C(=O)CC2CC(=O)NC(=O)C2)C1=O (stereo unspecified)    > 100 µM (inactive)

* * *

Recorded GI50, one value per entry.
- Tested on: DU-145
- PROCEDURE_TEXT: NCI tumour cell line growth inhibition, 48 h
Activity calls are given as the source filed them. No stated cut-off is given here; in the data, active = GI50 up to about 1.1 µM and inactive = higher. Where a SMILES comes first, the peptide text is derived from it. [ ]: non-standard residue; d: D form. The star is where a group is joined. Cbz = O=C(OCc1ccccc1)*; Aib = CC(C)(N)C(=O)O
OBSERVATION_TYPE: GI50

COc1cc2c(cc1OC)C(=O)N(c1ccc(O)cc1)C2    > 100 µM (inactive)
COc1nc2c(c(=O)n1C)N=C(c1ccccc1)[C@H](C(CC(=O)c1ccccc1)c1ccccc1)C(c1ccccc1)N2 (stereo not given in full)    > 100 µM (inactive)
O=C(N/N=C\C=C\c1ccc([N+](=O)[O-])o1)C(=O)N/N=C\C=C\c1ccc([N+](=O)[O-])o1    > 100 µM (inactive)
CCOP(=O)(OCC)C1CC(O)CN1OC(=O)C(C)(C)C (stereo not given)    > 100 µM (inactive)
C=CCNC(=O)/C(Cc1cc(Br)c(OC)c(Br)c1O)=N\O    5.3 µM (inactive)
O=C1NC(=O)C(COCc2ccccc2)C2=C1SCCC2 (stereo not given)    > 100 µM (inactive)
c1ccc(CSC2(SCc3ccccc3)CCCC2)cc1    > 10 µM (inactive)
CS/C(=N/S(=O)(=O)c1ccc(Cl)cc1)NCCCN/C(=N\S(=O)(=O)c1ccc(Cl)cc1)SC    23.6 µM (inactive)
CS(=O)(=O)OCOS(C)(=O)=O    59.6 µM (inactive)
C=CCc1cccc(C(=O)/C=C(O)/C=C/c2ccccc2Cl)c1O    15.1 µM (inactive)
C=C1C(=O)O[C@H]2[C@@H](O)[C@H](C)CCC[C@]3(C)O[C@H]3CC[C@@]3(C)O[C@@H]3C[C@@H]12    6.52 µM (inactive)
C[C@@H]1[C@@H](c2ccccc2)O[B-](c2ccccc2)(c2ccccc2)[N+]1(C)C    > 100 µM (inactive)
O=C(/C=N/O)c1c(-c2ccccc2)[nH]c(-c2ccccc2)c1-c1ccccc1    0.927 µM (active)
Oc1[nH]c(Nc2cc(Cl)cc(Cl)c2)nc2ncnc1-2    > 75 µM (inactive)
Cc1oncc1/N=C1\C=C(O)C(=O)c2ccccc21    15 µM (inactive)
CCSc1nn(-c2c3ccccc3nc3ccccc23)c(=S)s1    > 100 µM (inactive)
COC(=O)C(Cc1c[nH]c2ccccc12)NP(=O)(O)OCC1OC(n2ccc(N)nc2=O)C(O)C1O (stereo not given)    > 100 µM (inactive)
CCC(/C=C/C1OC(=O)C=CC1C)=C\C(C)C/C=C/C(C)=C/C(C)C(=O)C(C)C(O)C(C)C/C(C)=C/C(=O)O (stereo not given)    0.000264 µM (active)
CC(C)(NC(=O)C(C)(C)NC(=O)OCc1ccccc1)C(=O)O (Cbz-[Aib]-[Aib]-OH)    > 100 µM (inactive)
O=c1[nH]nc(Cc2ccc(Cl)cc2)n1CCO    > 100 µM (inactive)

* * *

- Test system: A498
- PROCEDURE_TEXT: NCI tumour cell line growth inhibition, 48 h
Calls of active or inactive are those of the source. Cut-off read from the data, not from the text of the source: active = GI50 up to about 1.1 µM and inactive = higher.
Some compounds, each annotated with its measured GI50.
OBSERVATION_TYPE: GI50

CN(C)C(=S)/N=c1\ssc(=S)n1C    > 100 µM (inactive)
C[C@H](CS)C(=O)N1c2ccccc2C[C@H]1C(=O)O    > 100 µM (inactive)
N=C(N)N/N=C/c1c(-c2cccc([N+](=O)[O-])c2)nc2n1CCS2    17 µM (inactive)
COc1ccc(Cc2nc3cc(C(F)(F)F)ccc3n2C[C@@H]2CCCN3CCCCC23)cc1 (some centres undefined)    4.4 µM (inactive)
CCCCCCCCC[C@@H]1C[C@@H]2CCC3C(C(=O)OCCCCNC(=O)OCc4ccccc4)=C(C)N=C(N1)N32 (some centres undefined)    4.66 µM (inactive)
CCCCCCCCCCCCCCCCOC[C@@H](COC(c1ccccc1)(c1ccccc1)c1ccccc1)O[PH](=S)OC (some centres undefined)    11.5 µM (inactive)
c1ccc([P+](CCCCCCCC[P+](c2ccccc2)(c2ccccc2)c2ccccc2)(c2ccccc2)c2ccccc2)cc1    > 31.8 µM (inactive)
CCOC(=O)NC(NNc1ccc([N+](=O)[O-])cc1[N+](=O)[O-])(C(F)(F)F)C(F)(F)F    19.7 µM (inactive)
O=S(=O)(O)SC/C=C\CSS(=O)(=O)O    > 100 µM (inactive)

* * *

- Tested on: UACC-257
- PROCEDURE_TEXT: NCI tumour cell line growth inhibition, 48 h
The source made the active and inactive calls. Cut-off read from the data, not from the text of the source: active = GI50 up to about 1.1 µM and inactive = higher.
Each entry below carries its reported GI50.
OBSERVATION_TYPE: GI50

O=C(CC(=O)c1ccncc1)c1ccccc1    > 85.7 µM (inactive)
COc1cc2noc(-c3ccccc3)c2cc1OC    > 100 µM (inactive)
COC(=O)C(Cc1c(C2Nc3ccccc3C2CC(NC(=O)CNC(C)=O)C(=O)OC)[nH]c2ccccc12)NC(=O)CNC(C)=O (stereo not given)    > 100 µM (inactive)
CCOC(=O)[C@@H](NC(=O)OC(C)(C)C)[C@@H](O)C(=O)OCC    > 100 µM (inactive)
Cc1ccc(C)c(NC(=O)C(=O)C(c2cnc3ccc([N+](=O)[O-])cc3n2)[N+](=O)[O-])c1 (stereo not given)    38.6 µM (inactive)
CCOP(=O)(OCC)C1CC(O)CN1OC(=O)C(C)(C)C (stereo not given)    > 100 µM (inactive)
O=C1Nc2ccccc2Cn2c1cc1oc(-c3ccccc3)cc12    > 100 µM (inactive)
C=CCn1c(=S)sc2c(C(=O)OCC)c3c(C)cc(C)cn3c2c1=O    > 100 µM (inactive)
NC(=O)[C@H](Cc1ccc(O)cc1)NC1=C(Cl)C(=O)c2c(O)ccc(O)c2C1=O    3.15 µM (inactive)
CC(C)=CCC/C(C)=C/COc1c2ccoc2cc2oc(=O)ccc12 [BERGAMOTTIN]    24.7 µM (inactive)

* * *

Recorded GI50 for the following compounds
- Tested on: OVCAR-8
- PROCEDURE_TEXT: NCI tumour cell line growth inhibition, 48 h
The source made the active and inactive calls. No stated cut-off is given here; in the data, active = GI50 up to about 1.1 µM and inactive = higher.
OBSERVATION_TYPE: GI50

O=C(N/N=C\C=C\c1ccc([N+](=O)[O-])o1)C(=O)N/N=C\C=C\c1ccc([N+](=O)[O-])o1    23.2 µM (inactive)
O=[N+]([O-])c1ccc2[nH]c3c(-c4ccccc4)nccc3c2c1    22 µM (inactive)
N#CC12CC3=C(N=C1NC1=C(CCc4ccccc41)C2)c1ccccc1CC3 (stereo unspecified)    3.24 µM (inactive)
COc1cc2c(cc1OC)C13CCN4C=C5CCOC6CC(=O)N2C1C6C5CC43 (stereo unspecified)    > 100 µM (inactive)
CC(=O)O[C@H]1CC[C@@]2(C)C(=CC[C@@H]3[C@@H]2CC[C@]2(C)c4nc(N)c(C#N)cc4C[C@@H]32)C1    30.3 µM (inactive)
O=c1[nH]c2cc([N+](=O)[O-])ccc2nc1/C(=N/Nc1ccccc1)C(O)c1ccccc1Cl (stereo unspecified)    > 100 µM (inactive)
O=C(CSCC(=O)N/N=C\c1cc(Cl)cc(Cl)c1O)N/N=C\c1cc(Cl)cc(Cl)c1O    2.1 µM (inactive)
CN1C(=O)c2cccc3cc([N+](=O)[O-])cc(c23)C1=O    > 10 µM (inactive)
CO/N=C/c1c(-c2ccc(Cl)cc2)c(/C=N/OC)n2c1sc1ccccc12    > 100 µM (inactive)
COCC1N=C(c2cc(OC)c(OC)c(OC)c2-c2cc3c(cc2C2OCCCO2)OCO3)O[C@H]1c1ccccc1 (stereo partly specified)    > 100 µM (inactive)
S=C1SC(c2ccc(Cl)cc2)(c2ccc(Cl)cc2)c2ccccc21    > 100 µM (inactive)
